In this section, each of the molecules is paired with its reported growth.
tested on: HCC-2998 colon; test: NCI-60 one-dose screen, 48 h (100 = growth as untreated, 0 = no growth, -100 = all killed); settings: 10 µM unless noted
The panel holds about 83,000 compounds, 20% with a hit somewhere; the sample as a whole holds those more often.
Respond numerically; units are % and should not be typed.

Use the examples below as a reference point.
1. COc1cc(/C=N/NC(=O)c2ccc(OCc3nc4ccc(C)cc4[nH]3)cc2)cc(OC)c1OC ... 65.5
2. NS(=O)(=O)c1ccc(Nc2nc(SCC(=O)c3ccc(F)cc3)nc3ccccc23)cc1 ... 47.5
3. O=CNc1ccc(-n2cnc3cc(-c4ccc(O)cc4)ccc32)cc1 ... 102
4. O=C(Cc1c(-c2ccccc2[N+](=O)[O-])n(-c2ncnc3c2c(-c2ccccc2)c(-c2ccccc2)n3Cc2ccccc2)[nH]c1=O)c1ccc(Cl)c(Cl)c1 ... 24.9
5. Clc1ccc(CNc2nc(SCCN3CCOCC3)nc3c2cnn3CC(Cl)c2ccc(Br)cc2)cc1 (stereo not drawn) ... 30.9

QUERY: Provide value of growth for this record tested with HCC-2998 colon: COc1ccc(-c2cc(C(=O)OCc3ccc(Br)cc3)nn2-c2ccc(S(C)(=O)=O)cc2)cc1OC
RESULT: 95.8

QUERY: Another molecule to look at: O=C1Nc2ccccc2/C1=C/C(=O)c1cc2ccccc2oc1=O
RESULT: 140

QUERY: Continue with O=C(Nc1ccc(S(=O)(=O)N2CCCCC2)cc1)C(Cl)Cl
RESULT: 124

----------
Tested on: MDA-MB-231 breast
Assay: NCI-60 one-dose screen, 48 h (100 = growth as untreated, 0 = no growth, -100 = all killed)
Conditions: 10 µM unless noted
Protocol: Cells are grown in 96 well plates and exposed to the test compound for 48 hours. Compounds are tested at a single concentration, which is 10^-5 M for most compounds. The reported endpoint is percent growth (GI% or GIPRCNT), where numbers from 0 - 100% represent growth inhibition, and numbers from -100% - 0 represent cell death. For example, a value of 40 represents 60% growth inhibition. A value of 0 means no net growth occurred over the course of the experiment. […]
About 83,000 compounds went through this panel and 20% of them were active in at least one assay; those are over-represented in the sample as a whole.
Quantity kind: growth (%)
Quick reminder: number only, in %, skip the unit.

QUERY: growth for CC1=C(C)C(=O)C(NCCN2CCOCC2)=C(Br)C1=O ?
RESULT: -6.27

QUERY: Same for CCc1ccccc1NC(=O)N/C(N)=N/c1nc2ccccc2s1
RESULT: -21.3

QUERY: Now give it for Cc1ccc(S(=O)(=O)N(CCn2ccnc2[N+](=O)[O-])CCn2ccnc2[N+](=O)[O-])cc1 too.
RESULT: 104

----------
system: HOP-92 NSCLC; test: NCI-60 one-dose screen, 48 h (100 = growth as untreated, 0 = no growth, -100 = all killed); settings: 10 µM unless noted
About 83,000 compounds went through this panel and 20% of them were active in at least one assay; those are over-represented in the sample as a whole.
growth values for the compounds below.
Dear colleague, please return just the value in %, with no unit written.

QUERY: growth for O=C1CCC(N2C(=O)c3cccc(NCCCCCC(=O)N4CCN(c5ccc6nc7c(nc6c5C(F)(F)F)C(=O)c5ncccc5C7=O)CC4)c3C2=O)C(=O)N1 (centres undefined) ?
RESULT: -40.2

QUERY: Repeat for the following compound: CN(C)CCCc1ccc(Nc2cnn(C)c(=O)c2Cl)cc1
RESULT: 110

QUERY: Quick one: O=C(Nc1ccc(S(=O)(=O)N2CCCCC2)cc1)C(Cl)Cl
RESULT: 116

QUERY: Query Nc1nn2c(-c3cc4ccccc4oc3=O)ccnc2c1N=Nc1ccccc1 next
RESULT: 30.2

----------
test system: COLO 205 colon; test: NCI-60 one-dose screen, 48 h (100 = growth as untreated, 0 = no growth, -100 = all killed); details: 10 µM unless noted
The panel holds about 83,000 compounds, 20% with a hit somewhere; the sample as a whole holds those more often. The source made the active and inactive calls. The calls were made as follows: active = growth percent below 10; inactive = the rest.
Quantity kind: growth

1. Cc1ccc(C2CC(c3ccc(NC(=O)Nc4ccccc4)cc3)=NN2c2ccc(S(C)(=O)=O)cc2)cc1 (stereo not drawn) ... -43.4% (active)
2. NS(=O)(=O)c1ccc(Nc2nc(N/N=C/c3cc(Br)c(O)c(Br)c3)nc(Nc3ccccc3)n2)cc1 ... 88% (inactive)
3. Cn1cc(-c2cc3nc(-c4c[nH]c5ccccc45)cc(N)n3n2)c2ccccc21 ... -88.8% (active)

QUERY: I have this molecule here, Nc1cc2ccccc2c(=O)n1NC(=O)c1ccccc1 , and I need its recorded growth.
RESULT: 111% (inactive)

QUERY: Same read-out for COc1ccc(Nc2ncnc3sc4c(c23)CCN(Cc2ccccc2)C4)cc1 ?
RESULT: 106% (inactive)

QUERY: Now consider CC(C)C[C@H](NC(=O)CNC(=O)C[C@H]1O[C@@H]2OC3(C)CC[C@H]4[C@H](C)CC[C@@H]([C@H]1C)[C@@]24O3)B(O)O and answer again.
RESULT: 29.5% (inactive)

QUERY: COc1cc(/C=C/C(=O)c2cnn(-c3cc(=O)[nH]c4ccccc34)c2C)cc(OC)c1OC , same question.
RESULT: 4.15% (active)

QUERY: Now try CCC(=O)c1c2c(c3ccc4c5ccccc5ccc4n13)C(=O)c1ccccc1C2=O .
RESULT: 75.8% (inactive)

----------
system: LOX IMVI melanoma; experiment: NCI-60 one-dose screen, 48 h; settings: 10 µM unless noted
The panel holds about 83,000 compounds, 20% with a hit somewhere; the sample as a whole holds those more often. The source made the active and inactive calls. How the source made its calls: active means growth percent below 10; inactive means the rest.
A correct response names exactly one class from active, inactive

Before answering, review these 4 worked examples.
1. O=C(CSc1nc2ccccc2c(=O)[nH]1)Nc1ccccc1C(=O)O ... inactive
2. Cc1nn(-c2ccccc2)c2nc(C)n(C(=O)N/N=C/c3cccc([N+](=O)[O-])c3)c(=O)c12 ... inactive
3. COc1ccc(NC(=O)N/N=C/c2c[nH]c3ccccc23)cc1 ... inactive
4. COc1c(F)ccc(C(=O)Nc2ccc3nc(NC(=O)C4CCCN(S(=O)(=O)c5ccc(C(C)(C)C)cc5)C4)sc3c2)c1F (stereo not given) ... inactive

Okay, now this molecule:
QUERY: Check the results log: what was the call for COc1ccc(/C=C/c2nc3ccccc3n3c(-c4cccc([N+](=O)[O-])c4)nnc23)cc1 ?
RESULT: active

----------
test system: NCI-H23 lung; assay: NCI-60 one-dose screen, 48 h (100 = growth as untreated, 0 = no growth, -100 = all killed); conditions: 10 µM unless noted
About 83,000 compounds went through this panel and 20% of them were active in at least one assay; those are over-represented in the sample as a whole.
Parameter growth: see the listing below.
I only need the number, in %, no unit after it.

Guide cases for growth, answers given:
1. O=C(NNC(=S)NC(=O)c1ccccc1)c1ccc(OCc2nc3ccc(Cl)cc3[nH]2)cc1 ... -71.3
2. COc1ccc(-n2c(NC(=O)N3CCN(C)CC3)c(C#N)c3ccccc32)cc1 ... 33.8
3. Cn1cc(-c2cc(N)n3nc(-c4c[nH]c5ccc(F)cc45)cc3n2)c2cccnc21 ... -68.2

QUERY: NCI-H23 lung / growth / N/C(=N\c1nc2ccc([N+](=O)[O-])cc2s1)NC(=O)Nc1ccccc1Cl : value?
RESULT: 44.6

QUERY: Now the molecule N#Cc1cc(-c2ccnc(Nc3ccc(N4CCN(C5COC5)CC4)cc3)n2)ccc1N1CCCC1
RESULT: 82.9

----------
system: UACC-257 melanoma; experiment: NCI-60 one-dose screen, 48 h (100 = growth as untreated, 0 = no growth, -100 = all killed); conditions: 10 µM unless noted
The panel holds about 83,000 compounds, 20% with a hit somewhere; the sample as a whole holds those more often.
# maps each entry to its growth
# value in %; strip the unit string

// below: answered compounds
1) COc1ccc(-c2nc3ccc(-c4nnc(SCc5ccccc5)o4)cc3[nH]2)cc1OC ... 78.4
2) COC(=O)c1cc(C(=O)C(Br)Br)n2c1ccc1c3ccccc3ccc12 ... 80.1
3) COc1ccc(N=Nc2c(N)nn3c(-c4ccc(F)cc4)ccnc23)cc1 ... 81.8

Please examine the following record next.
QUERY: # growth lookup, item CCCCCCCCc1ccc(C(=O)Nc2cccc(O)c2)cc1
RESULT: 79.3

----------
test system: RPMI-8226 leukemia; experiment: NCI-60 one-dose screen, 48 h; conditions: 10 µM unless noted
The panel holds about 83,000 compounds, 20% with a hit somewhere; the sample as a whole holds those more often. Active and inactive are the calls of the source. Rule for the calls: active = growth percent below 10; inactive = the rest.
Your reply should match one of these outcome classes. label 1 for active, label 0 for inactive

# count of solved cases: 5
1. COc1cccc(C(N)=Nc2ccc(OCCCCCCCCn3cncn3)cc2)c1 ... label 0
2. CCCCCCCCCCCCCCCCCC(=O)Nc1ccc(OC)cc1 ... label 0
3. Cc1nc(Nc2ccccn2)sc1C1=NNC(c2ccccc2F)C1 (centres undefined) ... label 0
4. CCOC(=O)c1ccc(NC(=S)NC(=O)c2cccc(NC(=O)c3ccc(C)cc3)c2)cc1 ... label 0
5. O=C(NNC(=O)c1ccc(OCc2nc3ccc(Cl)cc3[nH]2)cc1)Nc1ccc(Cl)c(Cl)c1 ... label 0

QUERY: Status in this test for O=C(CSc1nc2ccccc2c(=O)[nH]1)Nc1ccccc1C(=O)O ?
RESULT: label 0

QUERY: Next record, please: Clc1ccc(CNc2nc(SCCN3CCOCC3)nc3c2cnn3CC(Cl)c2ccc(Br)cc2)cc1 (centres undefined)
RESULT: label 1

QUERY: Can you handle C=CC(=O)N1CCN(c2ccc3nc4c(nc3c2C(F)(F)F)C(=O)c2ncccc2C4=O)CC1 next?
RESULT: label 1

QUERY: Another: O=C1N/C(=N\c2nccs2)S/C1=C\c1ccc([N+](=O)[O-])cc1
RESULT: label 1

QUERY: Also need Cn1cc(-c2cc(N)n3nc(-c4c[nH]c5ccccc45)cc3n2)c2cc(F)ccc21 , thanks.
RESULT: label 1

QUERY: Entry COc1ccc([C@H]2C(C(=O)c3ccc(Cl)cc3)C3(N[C@@H]2c2ccccc2)C(=O)Nc2ccccc23)cc1 (some centres undefined) please
RESULT: label 0

QUERY: Can you handle COc1ccc(C2=Nc3c(N)nc(N)nc3NC(c3ccc(Oc4nc(Nc5ccc(F)cc5)nc(N(C)C)n4)c(OC)c3)C2)cc1 (centres undefined) next?
RESULT: label 0

QUERY: // repeat for N#Cc1ccc(C(=O)CSc2nc3c(c(Nc4ccc(S(N)(=O)=O)cc4)n2)CCC3)cc1 and report
RESULT: label 0

QUERY: Same thing, different compound: COc1ccc(-c2nc3ccc(-c4nnc(SCc5ccccc5)o4)cc3[nH]2)cc1
RESULT: label 1

QUERY: Quick one: COc1cc(C2CC(c3ccc(C(F)(F)F)cc3)=Nc3c(N)nc(N)nc3N2)ccc1Oc1nc(Nc2ccc(F)cc2)nc(N(C)C)n1 (centres undefined)
RESULT: label 0

QUERY: Try this compound next: Cc1ccc(C(=O)Nc2cc(-c3ccccc3)cc(C(F)(F)F)c2)cc1C#Cc1cnc2cccnn12
RESULT: label 0

QUERY: Next record, please: CCCSc1nnc(-c2c(C)nc3sccn23)o1
RESULT: label 0

QUERY: // query: COc1ccc(NC(=O)NN2C(=O)c3ccccc3N(C)C2c2ccc(OC)cc2)cc1 (centres undefined)
RESULT: label 0

QUERY: Thanks! And Cc1cc(Cl)ccc1NC(=O)Nc1ccc(-c2ccc3c(c2)NC(=O)/C3=C\c2ccc[nH]2)cc1 ?
RESULT: label 0

The measured values listed here are drawn from PubChem BioAssay (NCI).
